Organism: Homo sapiens
Test: Inhibition of hypoxia-induced HIF1 activation at 12. 7 uM
Reported values of inhibition for individual entries
Attribute measured: inhibition

1) COC(=O)[C@@H](C)[C@H]1CC[C@](C)(CCC/C(C)=C/CC2C(C)=CCCC2(C)C)OO1 (relative stereo) [DIACARNOXIDE D]: < 30%
2) C=C1CCCC(C)(C)C1CCC(C)CCC[C@@]1(C)CC[C@H]([C@H](C)C(=O)O)OO1 (relative stereo) [DIACARNOXIDE B]: 95%
3) COC(=O)[C@@H](C)[C@H]1CC[C@](C)(CCCC(C)CCC2=C(C)CCCC2(C)C)OO1 (relative stereo) [DIACARNOXIDE C]: < 30%
4) C=C1CCCC(C)(C)C1CCC(C)CCC[C@@]1(C)CC[C@H]([C@H](C)C(=O)OC)OO1 (relative stereo) [DIACARNOXIDE A]: < 30%

Hey, just so you know, these numbers are from ChEMBL document CHEMBL1139850.
